Measured Minimum Inhibitor Concentration (MIC) of individual entries
system: Staph. aureus Smith; assay: MIC by agar dilution method; format: cell-based; set-up: unit not given here

# compound, Minimum Inhibitor Concentration (MIC)
measured = [
    ("Nc1nc(/C(=N/OCc2ccc(O)c(O)c2Cl)C(=O)NC2C(=O)N3C(C(=O)[O-])=C(CSc4cnns4)CS[C@H]23)cs1.[Na+] (stereo partly shown) [Example 2]", 0.20),
    ("C[n+]1ccc(SCC2=C(C(=O)[O-])N3C(=O)C(NC(=O)/C(=N\\OCc4cc(Cl)c(O)c(O)c4Cl)c4csc(N)n4)C3SC2)cc1 (stereo not shown) [Example 3]", 0.39),
    ("Nc1nc(/C(=N/OCc2cc(F)c(O)c(O)c2F)C(=O)NC2C(=O)N3C(C(=O)[O-])=C(CSc4cnns4)CS[C@H]23)cs1.[Na+] (stereo partly shown) [Example 8]", 0.10),
    ("Nc1nc(/C(=N/OCc2cc(O)c(O)c(Cl)c2)C(=O)NC2C(=O)N3C(C(=O)O)=C(CSc4cnns4)CSC23)cs1 (stereo not shown) [Example 7]", 0.01),
    ("Nc1nc(/C(=N/OCc2ccc(O)c(O)c2)C(=O)NC2C(=O)N3C(C(=O)[O-])=C(CSc4cnns4)CS[C@H]23)cs1.[Na+] (stereo partly shown) [Example 5]", 0.10),
    ("Nc1nc(/C(=N/OCc2cc(O)c(O)c(F)c2)C(=O)NC2C(=O)N3C(C(=O)O)=C(CSc4cnns4)CSC23)cs1 (stereo not shown) [Example 9]", 0.10),
    ("Nc1nc(/C(=N/OCc2cc(Cl)c(O)c(O)c2Cl)C(=O)NC2C(=O)N3C(C(=O)[O-])=C(CSc4cnns4)CS[C@H]23)cs1.[Na+] (stereo partly shown) [Example 1]", 0.10),
]

====

tested on: Enterobacter cloacae; test: MIC by agar dilution method; format: cell-based; parameters: unit not given here
property measured: Minimum Inhibitor Concentration (MIC)

# molecule, test target, test value
measured = [
    ("Nc1nc(/C(=N/OCc2ccc(O)c(O)c2Cl)C(=O)NC2C(=O)N3C(C(=O)[O-])=C(CSc4cnns4)CS[C@H]23)cs1.[Na+] (stereo partly shown) [Example 2]", "Enterobacter cloacae", 0.78),
    ("C[n+]1ccc(SCC2=C(C(=O)[O-])N3C(=O)C(NC(=O)/C(=N\\OCc4cc(Cl)c(O)c(O)c4Cl)c4csc(N)n4)C3SC2)cc1 (stereo not shown) [Example 3]", "Enterobacter cloacae", 0.20),
    ("Nc1nc(/C(=N/OCc2cc(F)c(O)c(O)c2F)C(=O)NC2C(=O)N3C(C(=O)[O-])=C(CSc4cnns4)CS[C@H]23)cs1.[Na+] (stereo partly shown) [Example 8]", "Enterobacter cloacae", 3.13),
    ("Nc1nc(/C(=N/OCc2cc(O)c(O)c(Cl)c2)C(=O)NC2C(=O)N3C(C(=O)O)=C(CSc4cnns4)CSC23)cs1 (stereo not shown) [Example 7]", "Enterobacter cloacae", 6.25),
]

====

// reported Minimum Inhibitor Concentration (MIC) for each item listed
system: Enterobacter cloacae; assay: MIC by agar dilution method; assay type: cell-based; parameters: unit not given here

# compound, Minimum Inhibitor Concentration (MIC)
data = [
    ("Nc1nc(/C(=N/OCc2cc(Cl)c(O)c(O)c2Cl)C(=O)NC2C(=O)N3C(C(=O)[O-])=C(CSc4cnns4)CS[C@H]23)cs1.[Na+] (stereo partly drawn) [Example 1]", 0.20),
    ("Nc1nc(/C(=N/OCc2cc(O)c(O)c(F)c2)C(=O)NC2C(=O)N3C(C(=O)O)=C(CSc4cnns4)CSC23)cs1 (stereo not drawn) [Example 9]", 6.25),
    ("Nc1nc(/C(=N/OCc2ccc(O)c(O)c2)C(=O)NC2C(=O)N3C(C(=O)[O-])=C(CSc4cnns4)CS[C@H]23)cs1.[Na+] (stereo partly drawn) [Example 5]", 0.78),
]

Data provenance is patent EP0400805A1.
